test system: MS2 coat protein; experiment: apparent Kd, MS2 coat protein; higher = weaker binding; RNA-MaP array; FMN 200 µM where present; conditions: ligand present: flavin mononucleotide; designed as: ON switch for flavin mononucleotide
Reported apparent Kd by item:
Give the quantity in nM, number only.

Look over these answered cases.
                                        seq  numeric_readout
0  UCCUACAUGGGAGGAUAUCCUCAAGAGACAUGAGGAUCACCCAUGUAUUAUAUGCCUCAUGGCAUGGAGAAGGCCCAUGUAGGU              157
1  GUCGGGAUUACAUGAGGAUCACCCAUGUCAGAACGGGCAGUUAGAAGGUGCCAUUAGGGAGAGGGUAAGGAUAUAAUUUUUGGC             10.4
2  UAAAUCUUGUAAGGAUAUACACGAGAUUCAAGUGUAGAAGGUACUUACAUGAGGAUCACCCAUGUAUACAUGGAUAAUAGAUAU             64.5
3  CUCAAACAUGAGGAUCACCCAUGUGUUGUCAUGGGAGGAUAUCUAAGUUCAUUGUAUUCAGGAGAAGGCCUAUGUC             34.4
4  CUUAGUUUGUAGAAGGGUGACAUGAGGAUCACCCAUGUGCGUCGCCUGGAAGACCAGGGUACGCCACAGGAUAUACAAAGUAAG             23.1

Look up apparent Kd for this sequence: "GCCUUCGCAUGAGGAUAUGCUCCGGUUUCCGGAGCAGAAGGCAUGUCAUAAGACAUGAGGAUCACCCAUGUAGUUAAGAAGGCA"
31.7

Look up apparent Kd for this sequence: "CGUAAGAUGCAGAAGGUGUUAGCUAGAGCUACGACAUGAGGAUCACCCAUGUACUAGAAACAGUACAAGGAUAUGCAUCUUACA"
5.75

Look up apparent Kd for this sequence: "GCACUUACGUUAGGAUAUGGAUCGGAAAACGAUCCAGAAGGAAUAUGGGAACAUGAGGAUCACCCAUGUUCCACAGACAAGUGC"
25.9

Look up apparent Kd for this sequence: "GUAGCUAUCGGAGGAUAUUCAUACCGGAAACGGACAUGAGGAUCACCCAUGUGCGGAAACGCUUGGGAGAAGGCCGAUAGCUAC"
19.4

Look up apparent Kd for this sequence: "AAAAAUCCAGCGCAGGAUAUCGCAGGGUGCACAUGAGGAUCACCCAUGUGUACCCAAACACCCUGCGAGAAGGGCGUUGGAAAAAA"
9.68

Look up apparent Kd for this sequence: "AGAUAACACCAGAAGGACAUGAGGAUCACCCAUGUAGGAUAUGGGCAUCACUCGAGAAAGAUACGACCAAAGGGACACGCGGUC"
9.97

Look up apparent Kd for this sequence: "UUGGACGUCGUAGGAUAUGUAGGAUAUUCCUACAUGAGGAUCACCCAUGUUGACAUGGAAGCAGGACAGAAGGACGAUGUCCAU"
14.3

Look up apparent Kd for this sequence: "GUAGCAUACCGAGGAUAUUCAUAGCGGAAACGCACAUGAGGAUCACCCAUGUGGCGAAAGCCUUGGGAGAAGGCGGAAUGCUAC"
18.1

Look up apparent Kd for this sequence: "ACAUGAGGAUCACCCAUGUUAAAUUAGGAUAUAUGACUGCACAUGAGGUUCACCCAUGUUCUACCGUAGAAGGGAUAAAUAAUU"
59.4

Look up apparent Kd for this sequence: "GUAGCAUAAUCAGGAUAUUCAGCGAAUAGAUUGACAUGAGGAUCACCCAUGUGGCGAAAGCCUAGGGAGAAGGGAUAAUGCUAC"
42.1

Look up apparent Kd for this sequence: "GCGUAUUUAAUAUAUAUAAAACUGUCAGAAGGUGAUAAGACGACAUGAGGAUCACCCAUGUAAUUCAAGGAUAUGAUAAUGCGC"
20.3

Look up apparent Kd for this sequence: "GCUGCUCAUGAGAAGGCGAUCAUGAAACAUGAUCGAGGAUAUCAUGUAAACAUGAGGAUCACCCAUGUAUGGGUAUUAUGCAGC"
40.5

Look up apparent Kd for this sequence: "CGCCGACAUGAGGAUCACCCAUGUCACAACUGGUCAGGAUAUGGUAUGAAAUGGCUAUUGCCAGAAGGGACCUCAG"
20.4

Look up apparent Kd for this sequence: "AAGAAAGAAACGUAGGAUAUCAAGAAUAUAACAUGAGGAUCACCCAUGUAAAUACGAAAGUAUAAUGAGAAGGAUGGAUGAUCUUC"
83.4

Look up apparent Kd for this sequence: "GCUAUCGGGUGAGGAUAUAUAAUUGUGAUUAAAAUAGAAGGCAUCUCAGAAGACAUGAGGAUCACCCAUGUAGUUAAGAUGGCA"
20.1
